- experimental-system: GDP-bound KRAS wild-type protein (Homo sapiens)
- Sequence (P01116 whole entry): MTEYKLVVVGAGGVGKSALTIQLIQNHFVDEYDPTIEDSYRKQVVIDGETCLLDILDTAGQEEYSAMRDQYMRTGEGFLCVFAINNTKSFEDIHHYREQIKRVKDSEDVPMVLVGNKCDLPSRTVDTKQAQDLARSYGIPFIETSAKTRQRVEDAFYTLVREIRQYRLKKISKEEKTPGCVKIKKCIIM
- procedure-summary: Binding to KRAS by surface plasmon resonance (SPR), Single Cycle Kinetics
- cond: SPR Single Cycle Kinetics, GDP-bound KRAS wild-type protein, 1:1 binding model; read-out: KRAS KD
Where a SMILES comes first, the peptide text is derived from it. Bridges are numbered along the chain shown (N, C = ends). [ ]: non-standard residue; d: D form. The star is where a group is joined. hPhe(3,5-F2-4-CF3) = N[C@@H](CCc1cc(F)c(C(F)(F)F)c(F)c1)C(=O)O; hPhe(3-Cl-4-CF3) = N[C@@H](CCc1ccc(C(F)(F)F)c(Cl)c1)C(=O)O; NPrPhe(4-CF3) = CCCN[C@@H](Cc1ccc(C(F)(F)F)cc1)C(=O)O; NPrPhe(4-Me) = CCCN[C@@H](Cc1ccc(C)cc1)C(=O)O; NMePhe(4-Me) = CN[C@@H](Cc1ccc(C)cc1)C(=O)O; NMeGly(cPent) = CN[C@H](C(=O)O)C1CCCC1; Gly(cBu) = N[C@H](C(=O)O)C1CCC1; NMeD = CN[C@@H](CC(=O)O)C(=O)O; NMeL = CN[C@@H](CC(C)C)C(=O)O; Iva = CC[C@](C)(N)C(=O)O; Morpholide = C1CN(*)CCO1; NMeA = CN[C@@H](C)C(=O)O; Ac5c = NC1(C(=O)O)CCCC1; Aze = O=C(O)[C@@H]1CCN1; NBuGly = CCCCNCC(=O)O; Sar = CNCC(=O)O
The molecules listed here are annotated with their Kd.
Be sure to follow the number with its unit.

Sample records with Kd:
molecule	reported-value
CC[C@H](C)[C@@H]1NC(=O)[C@H](C)N(C)C(=O)C[C@@H](C(=O)N2CCOCC2)N(C)C(=O)[C@H](C2CCCC2)N(C)C(=O)C2(CCCC2)NC(=O)[C@@H]2CCCN2C(=O)[C@H](CCc2cc(F)c(C(F)(F)F)c(F)c2)NC(=O)CN(C)C(=O)[C@H](Cc2ccc(C(F)(F)F)cc2)N2CCCCC[C@@H](C2=O)N(C)C(=O)CN(C)C1=O [PP0487]	1700 pM
CCCN1C(=O)[C@@H]2CCN2C(=O)[C@H](C)N(C)C(=O)[C@H](C2CCC2)NC(=O)[C@H](CC(C)C)N(C)C(=O)C[C@@H](C(=O)N2CCOCC2)N(C)C(=O)[C@H](C2CCCC2)N(C)C(=O)C2(CCCC2)NC(=O)[C@@H]2CCCN2C(=O)[C@H](CCc2ccc(C(F)(F)F)c(Cl)c2)NC(=O)CN(C)C(=O)[C@@H]1Cc1ccc(C(F)(F)F)cc1 [PP0271] ([NMeL][Gly(cBu)][NMeA][Aze][NPrPhe(4-CF3)][Sar][hPhe(3-Cl-4-CF3)]P[Ac5c][NMeGly(cPent)][NMeD]-Morpholide; lactam N-11)	220 pM
CCCN1C(=O)CN(C)C(=O)CN(C)C(=O)[C@H]([C@@H](C)CC)NC(=O)[C@H](CC(C)C)N(C)C(=O)C[C@@H](C(=O)N(C)C)N(C)C(=O)[C@H](C2CCCC2)N(C)C(=O)[C@](C)(CC)NC(=O)[C@@H]2CCCN2C(=O)[C@H](CCc2cc(F)c(C(F)(F)F)c(F)c2)NC(=O)CN(C)C(=O)[C@@H]1Cc1ccc(C(F)(F)F)cc1 [PP0805] ([NMeL]I[Sar][Sar][NPrPhe(4-CF3)][Sar][hPhe(3,5-F2-4-CF3)]P[Iva][NMeGly(cPent)][NMeD]-NMe2; lactam N-11)	160 pM
CCCN1C(=O)CN(C)C(=O)[C@@H]2CCN2C(=O)[C@H]([C@@H](C)CC)NC(=O)[C@H](CC(C)C)N(C)C(=O)C[C@@H](C(=O)N2CCOCC2)NC(=O)[C@H](C2CCCC2)N(C)C(=O)C2(CCCC2)NC(=O)[C@@H]2CCCN2C(=O)[C@H](CCc2ccc(C(F)(F)F)c(Cl)c2)NC(=O)CN(C)C(=O)[C@@H]1Cc1ccc(C(F)(F)F)cc1 [PP0337] ([NMeL]I[Aze][Sar][NPrPhe(4-CF3)][Sar][hPhe(3-Cl-4-CF3)]P[Ac5c][NMeGly(cPent)]D-Morpholide; lactam N-11)	2500 pM

Task: Which Kd reading was recorded for the molecule CCC(CC)[C@H]1C(=O)N(C)[C@H](C(=O)N(C)C)CC(=O)N(C)[C@@H](COC)C(=O)N[C@@H]([C@@H](C)CC)C(=O)N(C2CC2)CC(=O)N(C)[C@H]2C/C=C\CCN(C2=O)[C@@H](Cc2ccc(C)cc2)C(=O)N(C)CC(=O)N[C@@H](CCc2cc(F)c(C(F)(F)F)c(F)c2)C(=O)N2C[C@H](OC(C)C)C[C@H]2C(=O)NC2(CC(C)(C)C2)C(=O)N1C [PP2572] ?
Output: 1200 pM

Task: Which Kd reading was recorded for the molecule CCCN1C(=O)CN(C)C(=O)CN(C)C(=O)[C@H]([C@@H](C)CC)NC(=O)[C@H](CC(C)C)N(C)C(=O)C[C@@H](C(=O)N2CCOCC2)N(C)C(=O)[C@H](C2CCCC2)N(C)C(=O)C2(CCCC2)NC(=O)[C@@H]2CCCN2C(=O)[C@H](CCc2ccc(C(F)(F)F)c(Cl)c2)NC(=O)CN(C)C(=O)[C@@H]1Cc1ccc(C)cc1 [PP0059] ([NMeL]I[Sar][Sar][NPrPhe(4-Me)][Sar][hPhe(3-Cl-4-CF3)]P[Ac5c][NMeGly(cPent)][NMeD]-Morpholide; lactam N-11) ?
Output: 150 pM

Task: Which Kd reading was recorded for the molecule CCCCN1CC(=O)N(C)[C@@H](Cc2ccc(C)cc2)C(=O)N(C)CC(=O)N[C@@H](CCc2ccc(C(F)(F)F)c(Cl)c2)C(=O)N2CCC[C@H]2C(=O)NC2(CCCC2)C(=O)N(C)[C@@H](C2CCCC2)C(=O)N(C)[C@H](C(=O)N2CCOCC2)CC(=O)N(C)[C@@H](CC(C)C)C(=O)N[C@@H]([C@@H](C)CC)C(=O)N(C)CC1=O [PP0021] ([NMeL]I[Sar][NBuGly][NMePhe(4-Me)][Sar][hPhe(3-Cl-4-CF3)]P[Ac5c][NMeGly(cPent)][NMeD]-Morpholide; lactam N-11) ?
Output: 650 pM

Task: Which Kd reading was recorded for the molecule CCC(CC)[C@H]1C(=O)N(C)[C@H](C(=O)N(C)C)CC(=O)N(C)[C@@H](COC)C(=O)N[C@@H]([C@@H](C)CC)C(=O)N(C2CC2)CC(=O)N(C)[C@H]2C/C=C\CCN(C2=O)[C@@H](CC2CCC(F)(F)CC2)C(=O)N(C)CC(=O)N[C@@H](CCc2cc(F)c(C(F)(F)F)c(F)c2)C(=O)N2C[C@H](OC(C)C)C[C@H]2C(=O)NC2(CC(C)(C)C2)C(=O)N1C [PP2523] ?
Output: 1700 pM

Task: Which Kd reading was recorded for the molecule CC[C@H](C)[C@@H]1NC(=O)[C@H](CC(C)C)N(C)C(=O)C[C@@H](C(=O)N2CCC2)N(C)C(=O)[C@H](C2CCCC2)N(C)C(=O)C2(CCCC2)NC(=O)[C@@H]2CCCN2C(=O)[C@H](CCc2cc(F)c(C(F)(F)F)c(F)c2)NC(=O)CN(C)C(=O)[C@H](Cc2ccc(C(F)(F)F)cc2)N2CCCC[C@@H](C2=O)N(C)C(=O)CN(C)C1=O [PP0570] ?
Output: 46 pM
